Method notes: NCI Yeast Anticancer Drug Screen. Data for the sgs1 mgt1 strain (AID 161);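 further: 0% = growth of cultures given vehicle only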
Conditions: S. cerevisiae sgs1 mgt1 strain, at 5.0 µM (retest, dose inferred, filed as 0.5)
About 79,000 compounds went through this panel and 15% of them were active in at least one assay; those are over-represented in the sample as a whole. Calls of active or inactive are those of the source. No stated cut-off is given here; in the data, active means growth inhibition above about 70%; inactive means the rest.
Write down the outcome that applies. Available outcomes: YES for active, NO for inactive

Q: Would you mind telling me which call this test gave O=C(Cc1ccccc1)NC(C(=O)c1ccccc1)c1ccccc1 (centres undefined) ?
Result: NO

Q: I'd appreciate the recorded outcome for CN1C(=O)c2cccc3c([N+](=O)[O-])ccc(c23)C1=O from this test.
Result: NO

Q: Dear colleague, could you share the recorded outcome for CCOc1c(N=Nc2ccc(Cl)cc2)c(-c2ccccc2)nn1C(N)=S when you have a moment?
Result: NO

Q: Hi, do you know how C=C(CN1CCOCC1)C(=O)c1ccccc1 came out in this test?
Result: NO

Q: Any idea what this test logged for Cc1cc(N=NC(N)=S)c2ccccc2c1O ?
Result: NO

Q: Dear all, I need the recorded test outcome for N=C(N)c1cccc(-c2ccc(-c3ccccc3)o2)c1 , thank you.
Result: NO

Q: Please share the test call associated with CC(C)(C)C(=O)CC(=O)C(F)(F)C(F)(F)C(F)(F)F.[Ag] .
Result: YES

Q: Field: outcome | Entry: CCN(CC)CCNc1c(O)cc(C)c2sc3ccccc3c(=O)c12
Result: NO

Q: Given c1ccc(-c2cc(-c3cc(-c4ccccn4)[nH]n3)n[nH]2)nc1 , state the outcome it received in this test.
Result: NO

Q: Please share the test call associated with O=C(NC1(OC(=O)c2ccc(Cl)cc2)CC1)c1ccc(Cl)cc1 .
Result: NO

Q: Given O=C(Cc1nc2ccc([N+](=O)[O-])cc2[nH]c1=O)C(=O)Nc1cc(Cl)c(Cl)cc1Cl , state the outcome it received in this test.
Result: NO

Q: Please share the test call associated with CCOC(=O)C(Cc1ccc(O)c(C=O)c1)NC(C)=O (centres undefined) .
Result: NO

Q: // param item: O=C(Nc1c(Cl)cccc1Cl)OCc1ccc2c(c1)OCO2 ; yields the recorded call
Result: NO

Q: Hey, what did the test say about Fc1ccc(OCCC(Cn2ccnc2)c2ccc(Cl)cc2Cl)cc1 (centres undefined) ?
Result: YES

Q: Short answer needed: outcome of this test for S=C1NC2=C(COC/C2=C\c2ccccc2Cl)C(c2ccccc2Cl)N1 (centres undefined) ?
Result: NO

Q: Record request — test call for Cc1ccc2sc(=S)sc2c1
Result: NO

Q: Hi, sorry to bother you, what did the test record for O=C(O)c1ccccc1SC(Sc1ccccc1C(=O)O)c1cccc(Cl)c1 ?
Result: NO

Q: Status in this test for Cc1cc(N2C(=O)CCSC2=S)c([N+](=O)[O-])cc1C ?
Result: NO

Q: // param item: c1cnc2c(Oc3nc(Oc4cccc5cccnc45)nc(Oc4cccc5cccnc45)n3)cccc2c1 ; yields the recorded call
Result: NO

###

Method notes: NCI Yeast Anticancer Drug Screen. Data for the mlh1 rad18 strain (AID 175)
Conditions: S. cerevisiae mlh1 rad18 strain growth inhibition; at 50.0 µM (retest, dose inferred, filed as 5.0)
About 79,000 compounds went through this panel and 15% of them were active in at least one assay; those are over-represented in the sample as a whole. The source made the active and inactive calls. Rule as the data show it: active = growth inhibition above about 70%; inactive = the rest.
Would you mind answering with one of these outcomes? active, inactive

Q: For COc1ccc(C2c3cc4c(cc3OC(C)(O)C2C)OCO4)cc1 (stereo not drawn) , which call appears in the assay record?
Result: active

Q: Which outcome did this test record for the molecule CN(C)c1ccc(/C=C/C(=O)c2ccc([N+](=O)[O-])cc2)cc1 ?
Result: inactive

Q: Dear colleague, could you share the recorded outcome for CO[C@H]1CC[C@@]2(C)C(=CC[C@H]3[C@@H]4C[C@H](OC(C)=O)C[C@@]4(C)CC[C@@H]32)C1 when you have a moment?
Result: inactive

Q: Kindly provide the recorded test outcome for the following molecule: COc1ccc2ccc(OC)c(C=O)c2c1
Result: inactive

Q: # fetch the recorded call for O=C(c1ccc(Cl)cc1)c1ccc(OCCCOc2ccc(C(=O)c3ccc(Cl)cc3)cc2)cc1 here
Result: inactive

Q: Hi, do you know how CCCCCCCC/C=C\CCCCCCCC(=O)OCCCCC came out in this test?
Result: inactive

Q: Please state the recorded outcome for this molecule: CCc1cccc(CC)c1NC(=O)CS
Result: active

Q: Tell me the recorded outcome of this test for CC1=NOC(=O)/C1=C/C=C/c1ccccc1 .
Result: active

Q: Dear colleague, could you share the recorded outcome for COc1ccc(C(c2ccc(C(C)C)cc(OC)c2=O)c2ccc(C(C)C)cc(OC)c2=O)cc1 when you have a moment?
Result: inactive

Q: State the result this test recorded for COc1ccc(Cc2cncc3c(O)c(OC)ccc23)cc1O .
Result: inactive

Q: Which outcome was entered for the molecule CCOC(=O)Cc1csc(/C=C/c2ccc(OC)c(OC)c2)n1 in this test?
Result: inactive

Q: Hi, sorry to bother you, what did the test record for CCCC(=O)Oc1ccc(-c2ccccc2)cc1Br ?
Result: active

Q: For OCCSC(=S)Nc1ccc(Cl)c(Cl)c1 , what call appears in the results of this test?
Result: active

Q: What classification did COc1ccc2nc3cc(Cl)ccc3c(Nc3nccs3)c2c1 end up with in this test?
Result: active

Q: Tell me the assay call for O=C(O)c1cc2ccc3cccc4ccc(c1)c2c34 please.
Result: active

Q: How did this test come out for Nc1cc(S(=O)(=O)O)cc2cc(S(=O)(=O)O)c(N=Nc3ccccc3)c(O)c12 ?
Result: inactive

Q: What classification did COc1ccc(C(C)c2cc3c(cc2O)OCO3)cc1 (stereo not drawn) end up with in this test?
Result: active

Q: How did this test come out for O=P1(Cc2ccccc2)c2ccccc2-c2ccccc21 ?
Result: active

Q: Give the logged outcome of this assay for the following molecule: CCO[Si](CC)(OCC)OCC
Result: inactive

Q: How was NCCCCC(N)C(=O)Nc1ccc2ccccc2c1 (stereo not drawn) classified in this test?
Result: active

Q: Each molecule tested received a call. Report the one for O=C(O)c1ccccc1/C=N/O .
Result: inactive

Q: Kindly provide the recorded test outcome for the following molecule: Nc1ccc(C(=O)Nc2ccc(C(=O)Nc3ccc(/C=C/c4ccc(NC(=O)c5ccc(N)cc5)cc4S(=O)(=O)O)c(S(=O)(=O)O)c3)cc2)cc1
Result: inactive

Q: Short answer needed: outcome of this test for CCCCCOC(=O)C(C)SC#N (stereo not drawn) ?
Result: inactive

###

Method notes: NCI Yeast Anticancer Drug Screen. Data for the rad50 strain (AID 155);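 further: 0% = growth of vehicle-only cultures of the same strain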
Conditions: S. cerevisiae rad50 strain growth inhibition; at 50.0 µM; active compounds read high
Description: Growth inhibition of yeast strains with defined genetic alterations is measured as a screen for potential anti-cancer activity. Selected strains with alterations in DNA damage repair or cell cycle control were exposed to compounds and growth inhibition was measured relative to vehicle treated controls. The strain used in this assay is rad50
About 79,000 compounds went through this panel and 15% of them were active in at least one assay; those are over-represented in the sample as a whole.
Assign growth inhibition to each entry below.
Give the quantity in %, number only.

# growth inhibition (molecule: O=[N+]([O-])C1(CO)COC(CCc2ccccc2)OC1 (centres undefined) ) is 67.7

Consider CCCCCCCCC1OC1CCCCCCCC(=O)OCC1CO1 (centres undefined) . Its measured growth inhibition is 3.45

get_value(item= Oc1c(Br)ccc2cccnc12 , readout=growth inhibition) returns 87.2

Given item CC(=O)N(O)c1ccc2c(c1)Cc1cc(F)ccc1-2 , the value recorded as its growth inhibition is 97

According to the records, this molecule Clc1ccccc1/C=C/c1nccc2ccccc12 displays growth inhibition of 94.1

growth inhibition measured on COC(=O)/C=N/O = -19.4

The molecule listed as CC(=O)NC1=C(Sc2ccc(C)cc2)C(=O)c2ccccc2C1=O shows growth inhibition equal to 54.4

Notebook: NSc1ccccn1 , growth inhibition read as 90.4

# growth inhibition of CC(C)N=Cc1cc(I)cc(I)c1O.CC(C)N=Cc1cc(I)cc(I)c1O.[Co] = 96.8

###

Method notes: NCI Yeast Anticancer Drug Screen. Data for the bub3 strain (AID 167)
Conditions: S. cerevisiae bub3 mutant strain, at 5.0 µM (retest, dose inferred, filed as 0.5)
This is part of a sample that, as a whole, favours compounds with a hit. Of some 79,000 tested, about 15% had one in any assay. Active and inactive are the calls of the source. No stated cut-off is given here; in the data, active means growth inhibition above about 70%; inactive means the rest.
Write down one outcome, taken from active, inactive

Q: Per the assay record, what outcome was assigned to COC(=O)CC1(O)c2cc(OC)c3cccc(OC)c3c2CCC1(C)C(=O)OC (stereo not drawn) ?
Result: active

Q: Lab log entry: c1ccc2c(c1)CCc1[nH]c3c(c1-2)-c1ccccc1CC3 — outcome as called in the assay?
Result: inactive

Q: Outcome? O=C1c2ccccc2C2(O)c3cc4ccccc4cc3OC12O (stereo not drawn)
Result: inactive

Q: Called result for N#Cc1ccc(OC(=O)Nc2c(Cl)cccc2Cl)cc1
Result: inactive

Q: Field: outcome | Entry: CC(C)C(O)C(C)C
Result: inactive

Q: What was the test verdict on Oc1cccc(Oc2cccc(Oc3ccccc3)c2)c1 ?
Result: inactive

Q: Assay result, entry CC(=O)N(C)C1=C(Sc2ccc(C)cc2)C(=O)c2ccccc2C1=O — outcome?
Result: active

Q: What outcome does the record of this test show for CC(=O)OC1=C(Br)CCc2ccccc21 ?
Result: inactive
